- EXPERIMENTAL TARGET: T1, wildtype feline IL-31 protein (Feline_IL31_wildtype) (feline)
- T1 construct: Full length feline IL-31 with C-terminal His tag, secreted from ExpiCHO cells; also called fIL-31
- T1 chain: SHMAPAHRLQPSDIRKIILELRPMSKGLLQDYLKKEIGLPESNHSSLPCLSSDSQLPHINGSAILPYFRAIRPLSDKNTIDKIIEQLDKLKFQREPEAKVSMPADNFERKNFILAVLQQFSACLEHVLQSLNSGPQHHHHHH
- METHOD NOTES: Biacore, feline IL-31 chip, mAb 100 nM, share of points within parent mean +/-3 SD
- Set-up: key: % of mutant data points within parent mAb mean ±3 SD
Use class 1 when the recorded Binding Similarity score is no lower than 60; use class 0 when it is lower.

* A23 (antibody, V domains shown) VH: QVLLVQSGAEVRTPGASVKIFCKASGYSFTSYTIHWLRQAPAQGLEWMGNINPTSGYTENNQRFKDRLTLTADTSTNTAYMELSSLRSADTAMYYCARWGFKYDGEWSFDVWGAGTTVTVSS VL: EIQMTQSPSSLSASPGDRVTITCRASQGISIWLSWYQQKPGNIPKVLINKASNLHIGVPSRFSGSGSGTDFTLTISSLEPEDAATYYCLQSATYPLTFGGGTKLEIK | class 1
* A07 (antibody, V domains shown) VH: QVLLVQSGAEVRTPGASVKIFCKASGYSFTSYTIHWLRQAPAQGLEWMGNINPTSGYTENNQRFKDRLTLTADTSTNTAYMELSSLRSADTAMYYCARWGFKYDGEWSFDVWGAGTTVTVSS VL: EIQMTQSPSSLSASPGDRVTITCRASAGISIWLSWYQQKPGNIPKVLINKASNLHIGVPSRFSGSGSGTDFTLTISSLEPEDAATYYCLQSQTYPLTFGGGTKLEIK | class 1
* A28 (antibody, V domains shown) VH: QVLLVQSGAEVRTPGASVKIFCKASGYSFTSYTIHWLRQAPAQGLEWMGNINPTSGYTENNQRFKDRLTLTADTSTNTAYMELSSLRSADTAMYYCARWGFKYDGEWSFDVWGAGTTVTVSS VL: EIQMTQSPSSLSASPGDRVTITCRASQGISIWLSWYQQKPGNIPKVLINKASNLHIGVPSRFSGSGSGTDFTLTISSLEPEDAATYYCLQSQTYPLAFGGGTKLEIK | class 0
* A15 (antibody, V domains shown) VH: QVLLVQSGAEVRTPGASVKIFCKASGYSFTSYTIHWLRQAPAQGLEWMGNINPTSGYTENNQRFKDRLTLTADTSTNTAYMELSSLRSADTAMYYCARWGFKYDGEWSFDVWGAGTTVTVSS VL: EIQMTQSPSSLSASPGDRVTITCRASQGISIWLSWYQQKPGNIPKVLINAASNLHIGVPSRFSGSGSGTDFTLTISSLEPEDAATYYCLQSQTYPLTFGGGTKLEIK | class 0
* A24 (antibody, V domains shown) VH: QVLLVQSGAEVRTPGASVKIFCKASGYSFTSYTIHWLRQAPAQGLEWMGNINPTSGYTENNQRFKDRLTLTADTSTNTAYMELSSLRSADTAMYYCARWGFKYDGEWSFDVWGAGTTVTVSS VL: EIQMTQSPSSLSASPGDRVTITCRASQGISIWLSWYQQKPGNIPKVLINKASNLHIGVPSRFSGSGSGTDFTLTISSLEPEDAATYYCLQSQAYPLTFGGGTKLEIK | class 1
